The origin of these recorded values is PubChem BioAssay (NCI).

system: UACC-257 melanoma; assay: NCI tumour cell line growth inhibition, 48 h
measure-name: TGI (µM)
Give your result in µM as a bare value.

For the compound shown here, Clc1ccc(C(Cn2ccnc2)OCc2ccsc2Cl)c(Cl)c1 (stereo unspecified) , give the reported TGI.
11.8

Also, "COc1cc2c(/C=C3/C(=O)Nc4c3ccc3ccccc43)c(Cl)n(C)c2cc1C" please.
29.3

Field entry: COC(=O)C1=C(O)C(C(=O)OC)[C@@]2(O)[C@@H](C(=O)OC)C(c3ccc(OC(=O)/C=C/c4ccccc4)cc3)C[C@@H]1[C@@H]2C(=O)OC (stereo partly specified)
25.4

Try this compound next: "O=C1/C(=C/c2ccco2)N=C(c2ccccc2)N1c1ccc(S(=O)(=O)Nc2nccs2)cc1"
89.5

For "CCOc1cc(F)c([N+](=O)[O-])cc1[N+](=O)[O-]" then?
3.23

Query "COc1cccc2[nH]c3c4c(c5c(c3c12)C(=O)N(CN1CCN(C)CC1)C5=O)CCC4" next
45.1

Another compound: "CCCCCCCCCCC(=O)CC(=O)c1c(O)cccc1O"
96

Next record, please: CC1CCC2C(C)(C)CC3(C)CCC1C23O (stereo unspecified)
29.7

Entry "COc1ccc(-c2cn[nH]c2-c2cc(OC)c(OC)c(OC)c2)cc1OCc1ccccc1" please
24.3

And what about the compound "O=c1n(-c2ccc(Cl)c(Cl)c2)c(=O)n(-c2ccc(Cl)c(Cl)c2)c(=O)n1-c1ccc(Cl)c(Cl)c1" ?
5.73

Next compound up: "O=C1/C=C/[C@@H](O)[C@@H]2C[C@@H](O)C[C@H]2/C=C/CCC[C@H](CCOCc2ccccc2)O1"
2.32

And the next one, "O=C1C(=O)c2cc([N+](=O)[O-])ccc2-c2ccc([N+](=O)[O-])cc21" ?
3.19
